Recorded values, source patent US11939403B2.

Reported Microsomal Stability values follow for various compounds
Assay: Microsomal stability
Format: in vitro ADME
Conditions: remaining rate after 30 min of incubation with pooled liver microsomes (0.1 mg/mL, rats)
Square brackets hold non-standard residues; d marks the D form. Peptide text beside a SMILES is read from it. Gly(N-CH2-oxan-4-yl) = O=C(O)CNCC1CCOCC1; NCyclohexylmethylGly = O=C(O)CNCC1CCCCC1; NMeL = CN[C@@H](CC(C)C)C(=O)O; NMeA = CN[C@@H](C)C(=O)O; NEtG = CCNCC(=O)O
Number only, in %; omit the unit.

Please review the entries below; each comes with its answer.
compound	metric_name	val
CCN1CC(=O)N[C@@H](CC(C)C)C(=O)N2CCC[C@@H]2C(=O)N(C)[C@@H](CC(C)C)C(=O)N[C@@H](C)C(=O)N(CC2CCOCC2)CC(=O)N[C@@H](Cc2ccccc2)C(=O)N2CCC[C@@H]2C(=O)N(C)[C@@H](CC(C)C)C(=O)N[C@@H](C)C1=O [Compound B09] (cyclo(A[NEtG]L[dP][NMeL]A[Gly(N-CH2-oxan-4-yl)]F[dP][NMeL]))	Microsomal Stability	90
CCN1CC(=O)N[C@@H](CC(C)C)C(=O)N2CCC[C@@H]2C(=O)N(C)[C@@H](CC(C)C)C(=O)N[C@@H](C)C(=O)N(CC2CCCCC2)CC(=O)N[C@@H](Cc2ccccc2)C(=O)N2CCC[C@@H]2C(=O)N(C)[C@@H](CC(C)C)C(=O)N[C@@H](C)C1=O [Compound B08] (cyclo([NEtG]L[dP][NMeL]A[NCyclohexylmethylGly]F[dP][NMeL]A))	Microsomal Stability	53

We next turn to a different compound, shown below.
Quick one: Microsomal Stability of CCN1CC(=O)N[C@@H](CC(C)C)C(=O)N(C)[C@@H](C)C(=O)N[C@@H](CC(C)C)C(=O)N2CCC[C@@H]2C(=O)N(CC2CCOCC2)CC(=O)N[C@@H](CC(C)C)C(=O)N(C)[C@@H](C)C(=O)N[C@@H](Cc2ccccc2)C(=O)N2CCC[C@@H]2C1=O [Compound A09] (cyclo([NEtG]L[NMeA]L[dP][Gly(N-CH2-oxan-4-yl)]L[NMeA]F[dP])) ?
67

====

# remaining at 0.5 h values compiled below
Assay: Microsomal stability
Assay type: in vitro ADME
Details: rat; remaining rate after 30 min of incubation with pooled liver microsomes (0.1 mg/mL, rats)
Square brackets hold non-standard residues; d marks the D form. Peptide text beside a SMILES is read from it. Gly(N-CH2-oxan-4-yl) = O=C(O)CNCC1CCOCC1; NCyclohexylmethylGly = O=C(O)CNCC1CCCCC1; NMeL = CN[C@@H](CC(C)C)C(=O)O; NMeA = CN[C@@H](C)C(=O)O; NEtG = CCNCC(=O)O
Enter your answer as a number in %; do not include the unit.

Below, 5 compounds whose answers are already recorded.
compound	remaining at 0.5 h (%)
CCN1CC(=O)N[C@@H](CC(C)C)C(=O)N(C)[C@@H](C)C(=O)N[C@@H](CC(C)C)C(=O)N2CCC[C@@H]2C(=O)N(CC2CCCCC2)CC(=O)N[C@@H](CC(C)C)C(=O)N(C)[C@@H](C)C(=O)N[C@@H](Cc2ccccc2)C(=O)N2CCC[C@@H]2C1=O [Compound A08] (cyclo(F[dP][NEtG]L[NMeA]L[dP][NCyclohexylmethylGly]L[NMeA]))	33
CCN1CC(=O)N[C@@H](CC(C)C)C(=O)N2CCC[C@@H]2C(=O)N(C)[C@@H](CC(C)C)C(=O)N[C@@H](C)C(=O)N(CC2CCOCC2)CC(=O)N[C@@H](Cc2ccccc2)C(=O)N2CCC[C@@H]2C(=O)N(C)[C@@H](CC(C)C)C(=O)N[C@@H](C)C1=O [Compound B09] (cyclo(A[NEtG]L[dP][NMeL]A[Gly(N-CH2-oxan-4-yl)]F[dP][NMeL]))	90
CCN1CC(=O)N[C@@H](CC(C)C)C(=O)N(C)[C@@H](C)C(=O)N[C@@H](CC(C)C)C(=O)N2CCC[C@@H]2C(=O)N(CC2CCOCC2)CC(=O)N[C@@H](CC(C)C)C(=O)N(C)[C@@H](C)C(=O)N[C@@H](C)C(=O)N2CCC[C@@H]2C1=O [Compound A03] (cyclo([NEtG]L[NMeA]L[dP][Gly(N-CH2-oxan-4-yl)]L[NMeA]A[dP]))	64
CCN1CC(=O)N[C@@H](CC(C)C)C(=O)N2CCC[C@@H]2C(=O)N(C)[C@@H](CC(C)C)C(=O)N[C@@H](C)C(=O)N(CC2CCCCC2)CC(=O)N[C@@H](Cc2ccccc2)C(=O)N2CCC[C@@H]2C(=O)N(C)[C@@H](CC(C)C)C(=O)N[C@@H](C)C1=O [Compound B08] (cyclo([NEtG]L[dP][NMeL]A[NCyclohexylmethylGly]F[dP][NMeL]A))	53
CCN1CC(=O)N[C@@H](CC(C)C)C(=O)N(C)[C@@H](C)C(=O)N[C@@H](CC(C)C)C(=O)N2CCC[C@@H]2C(=O)N(CC2CCOCC2)CC(=O)N[C@@H](CC(C)C)C(=O)N(C)[C@@H](C)C(=O)N[C@@H](Cc2ccccc2)C(=O)N2CCC[C@@H]2C1=O [Compound A09] (cyclo([NEtG]L[NMeA]L[dP][Gly(N-CH2-oxan-4-yl)]L[NMeA]F[dP]))	67

Consider now this further compound.
I would be grateful if you could share the reported remaining at 0.5 h for CCN1CC(=O)N[C@@H](CC(C)C)C(=O)N2CCC[C@@H]2C(=O)N(C)[C@@H](CC(C)C)C(=O)N[C@@H](C)C(=O)N(CC2CCOCC2)CC(=O)N[C@@H](C)C(=O)N2CCC[C@@H]2C(=O)N(C)[C@@H](CC(C)C)C(=O)N[C@@H](C)C1=O [Compound B03] (cyclo(A[NEtG]L[dP][NMeL]A[Gly(N-CH2-oxan-4-yl)]A[dP][NMeL])) .
94

====

# Microsomal Stability annotations
Assay: Microsomal stability
Assay type: in vitro ADME
Conditions: remaining rate after 30 min of incubation with pooled liver microsomes (0.1 mg/mL, rats)
Square brackets hold non-standard residues; d marks the D form. Peptide text beside a SMILES is read from it. Gly(N-CH2-oxan-4-yl) = O=C(O)CNCC1CCOCC1; NCyclohexylmethylGly = O=C(O)CNCC1CCCCC1; NMeL = CN[C@@H](CC(C)C)C(=O)O; NMeA = CN[C@@H](C)C(=O)O; NEtG = CCNCC(=O)O
Field: numeric (%). Do not append units.

compound	Microsomal Stability, %
CCN1CC(=O)N[C@@H](CC(C)C)C(=O)N(C)[C@@H](C)C(=O)N[C@@H](CC(C)C)C(=O)N2CCC[C@@H]2C(=O)N(CC2CCCCC2)CC(=O)N[C@@H](CC(C)C)C(=O)N(C)[C@@H](C)C(=O)N[C@@H](Cc2ccccc2)C(=O)N2CCC[C@@H]2C1=O [Compound A08] (cyclo(F[dP][NEtG]L[NMeA]L[dP][NCyclohexylmethylGly]L[NMeA]))	33
CCN1CC(=O)N[C@@H](CC(C)C)C(=O)N(C)[C@@H](C)C(=O)N[C@@H](CC(C)C)C(=O)N2CCC[C@@H]2C(=O)N(CC2CCOCC2)CC(=O)N[C@@H](CC(C)C)C(=O)N(C)[C@@H](C)C(=O)N[C@@H](C)C(=O)N2CCC[C@@H]2C1=O [Compound A03] (cyclo([NEtG]L[NMeA]L[dP][Gly(N-CH2-oxan-4-yl)]L[NMeA]A[dP]))	64

With those in mind, consider the next compound.
Request the reported Microsomal Stability associated with CCN1CC(=O)N[C@@H](CC(C)C)C(=O)N2CCC[C@@H]2C(=O)N(C)[C@@H](CC(C)C)C(=O)N[C@@H](C)C(=O)N(CC2CCOCC2)CC(=O)N[C@@H](C)C(=O)N2CCC[C@@H]2C(=O)N(C)[C@@H](CC(C)C)C(=O)N[C@@H](C)C1=O [Compound B03] (cyclo(A[NEtG]L[dP][NMeL]A[Gly(N-CH2-oxan-4-yl)]A[dP][NMeL]))
94

====

Collected Papp values appear next to each entry.
Test: in vitro
Details: dog, MDCK, MDCK Perm.
Square brackets hold non-standard residues; d marks the D form. Peptide text beside a SMILES is read from it. Gly(N-CH2-oxan-4-yl) = O=C(O)CNCC1CCOCC1; NCyclohexylmethylGly = O=C(O)CNCC1CCCCC1; NMeL = CN[C@@H](CC(C)C)C(=O)O; NMeA = CN[C@@H](C)C(=O)O; NEtG = CCNCC(=O)O
Report as a plain number; the unit nm/s is understood.

Examples with their reported Papp follow.
compound	val
CCN1CC(=O)N[C@@H](CC(C)C)C(=O)N(C)[C@@H](C)C(=O)N[C@@H](CC(C)C)C(=O)N2CCC[C@@H]2C(=O)N(CC2CCOCC2)CC(=O)N[C@@H](CC(C)C)C(=O)N(C)[C@@H](C)C(=O)N[C@@H](C)C(=O)N2CCC[C@@H]2C1=O [Compound A03] (cyclo([NEtG]L[NMeA]L[dP][Gly(N-CH2-oxan-4-yl)]L[NMeA]A[dP]))	4
CCN1CC(=O)N[C@@H](CC(C)C)C(=O)N(C)[C@@H](C)C(=O)N[C@@H](CC(C)C)C(=O)N2CCC[C@@H]2C(=O)N(CC2CCOCC2)CC(=O)N[C@@H](CC(C)C)C(=O)N(C)[C@@H](C)C(=O)N[C@@H](Cc2ccccc2)C(=O)N2CCC[C@@H]2C1=O [Compound A09] (cyclo([NEtG]L[NMeA]L[dP][Gly(N-CH2-oxan-4-yl)]L[NMeA]F[dP]))	31
CCN1CC(=O)N[C@@H](CC(C)C)C(=O)N(C)[C@@H](C)C(=O)N[C@@H](CC(C)C)C(=O)N2CCC[C@@H]2C(=O)N(CC2CCCCC2)CC(=O)N[C@@H](CC(C)C)C(=O)N(C)[C@@H](C)C(=O)N[C@@H](Cc2ccccc2)C(=O)N2CCC[C@@H]2C1=O [Compound A08] (cyclo(F[dP][NEtG]L[NMeA]L[dP][NCyclohexylmethylGly]L[NMeA]))	250

Which Papp value belongs to CCN1CC(=O)N[C@@H](CC(C)C)C(=O)N2CCC[C@@H]2C(=O)N(C)[C@@H](CC(C)C)C(=O)N[C@@H](C)C(=O)N(CC2CCOCC2)CC(=O)N[C@@H](C)C(=O)N2CCC[C@@H]2C(=O)N(C)[C@@H](CC(C)C)C(=O)N[C@@H](C)C1=O [Compound B03] (cyclo(A[NEtG]L[dP][NMeL]A[Gly(N-CH2-oxan-4-yl)]A[dP][NMeL])) ?
3
